# protocol: Tolerability in Sprague-Dawley rats: body weight and organ weight (Example 35)
# Assay type: in vivo
# assay conditions: 50 mg/kg s.c. twice per week for 6 weeks, vs saline control, normalized to body weight
property: Percent change in organ weight: Spleen

Please review the following examples before continuing.
substance: 416925 (antisense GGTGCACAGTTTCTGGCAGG; 3-14-3 gapmer chemistry, further chemistry not given here) [compound 416925]
property: Percent change in organ weight: Spleen
result: +371%

substance: 416838 (antisense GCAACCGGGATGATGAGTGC; 5-10-5 gapmer, further chemistry not given here) [compound 416838]
property: Percent change in organ weight: Spleen
result: +212%

substance: 416999 (antisense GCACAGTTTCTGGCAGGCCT; 2-13-5 gapmer chemistry, further chemistry not given here) [compound 416999]
property: Percent change in organ weight: Spleen
result: +405%

substance: 416826 (antisense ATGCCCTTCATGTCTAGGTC; 5-10-5 gapmer, further chemistry not given here) [compound 416826]
property: Percent change in organ weight: Spleen
result: +537%

substance: 416850 (antisense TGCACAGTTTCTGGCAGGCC; 5-10-5 gapmer, further chemistry not given here) [compound 416850]
property: Percent change in organ weight: Spleen
result: +354%

Recorded Percent change in organ weight: Spleen of 416858 (antisense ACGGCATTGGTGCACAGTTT; 5-10-5 gapmer, further chemistry not given here) [compound 416858] , please.
+187%

Returns the measured Percent change in organ weight: Spleen for the input substance. Input: 417002 (antisense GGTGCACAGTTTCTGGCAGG; 2-13-5 gapmer chemistry, further chemistry not given here) [compound 417002]
+446%

Looking for the measured Percent change in organ weight: Spleen of 416825 (antisense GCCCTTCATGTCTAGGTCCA; 5-10-5 gapmer, further chemistry not given here) [compound 416825] , can you help?
+245%
